Target: MAGL (Mus musculus)
Sequence (O35678 1-303): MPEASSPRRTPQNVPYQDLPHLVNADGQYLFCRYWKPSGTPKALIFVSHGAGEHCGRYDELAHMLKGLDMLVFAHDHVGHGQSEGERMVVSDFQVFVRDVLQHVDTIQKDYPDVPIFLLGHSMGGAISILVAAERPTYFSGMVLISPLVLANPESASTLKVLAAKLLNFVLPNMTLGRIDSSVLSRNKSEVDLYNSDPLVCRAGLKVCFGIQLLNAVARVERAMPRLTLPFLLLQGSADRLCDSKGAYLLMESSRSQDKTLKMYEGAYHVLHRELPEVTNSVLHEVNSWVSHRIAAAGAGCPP
Assay: In vitro competitive activity-based protein profiling (FP-Rh), mouse MAGL
Type: biochemical
Design: from tissue; host or cells: mouse brain membrane fraction
Details: Table 2, mouse proteome, 30 min preincubation at 37° C.
Property Measured: IC50

INSERT INTO results (molecule_smiles, test_value) VALUES
  ('Cc1nn(-c2ccccc2)cc1CN1CCN(C(=O)ON2C(=O)CCC2=O)CC1', '1000 to 10000 nM'),
  ('Cc1cc(-c2ccccc2)ccc1CN1CCN(C(=O)ON2C(=O)CCC2=O)CC1', '100 to 1000 nM'),
  ('Cc1nc(-c2ccccc2)oc1CN1CCN(C(=O)ON2C(=O)CCC2=O)CC1', '100 to 1000 nM'),
  ('O=C(ON1C(=O)CCC1=O)N1CCN(Cc2cnc3ccc(Cl)cn23)CC1', '1000 to 10000 nM'),
  ('O=C(ON1C(=O)CCC1=O)N1CCN(Cc2ccc(Cl)cc2-n2cccn2)CC1', '100 to 1000 nM'),
  ('O=C(ON1C(=O)CCC1=O)N1CCN(Cc2c(Cl)cccc2N2CCCC2)CC1', '1000 to 10000 nM'),
  ('O=C(ON1C(=O)CCC1=O)N1CCN(Cc2ccc(Cl)cc2N2CCCC2)CC1', '< 100 nM'),
  ('O=C(ON1C(=O)CCC1=O)N1CCN(Cc2cccc(F)c2N2CCOCC2)CC1', '100 to 1000 nM'),
  ('O=C(ON1C(=O)CCC1=O)N1CCN(Cc2ccc(-c3ccccc3)cc2C(=O)N2CCCC2)CC1', '100 to 1000 nM'),
  ('O=C(ON1C(=O)CCC1=O)N1CCN(Cc2ccc(C(F)(F)F)cc2N2CCOCC2)CC1', '< 100 nM');

// next item, IC50 requested
Suppose we examine the compound "Cc1ccc(CN2CCN(C(=O)ON3C(=O)CCC3=O)CC2)cc1" ; what IC50 value has been reported? 100 to 1000 nM

Data provenance is patent US9567302B2.
